Species on record: Rattus norvegicus
experiment_description: DrugMatrix - Regimen: Daily Repeat
Type: toxicity, organism-based, Sprague-Dawley
Parameters: regimen Daily Repeat, gender Male, age 6-8 weeks
assay_context: in vivo, po, 0 mg/kg, 72 h, tissue Blood, route oral GAVAGE, dose level Control, time 3 day, vehicle .5 % CMC
measured_quantity: BASOPHIL
Answer format reminder: number followed by unit.

In: Fill blank: measured BASOPHIL of the compound CCCNC(=O)NS(=O)(=O)c1ccc(Cl)cc1 [CHLORPROPAMIDE] is ____.
Out: 0%

In: Fill blank: measured BASOPHIL of the compound CN(C)C(=O)C(CCN1CCC(O)(c2ccc(Cl)cc2)CC1)(c1ccccc1)c1ccccc1 [LOPERAMIDE] is ____.
Out: 0%

In: Fill blank: measured BASOPHIL of the compound NC(=O)N1c2ccccc2CC(=O)c2ccccc21 [OXCARBAZEPINE] is ____.
Out: 0%

In: Fill blank: measured BASOPHIL of the compound "C[C@@H]1O[C@@H](O[C@H]2C[C@@H](O)[C@]3(CO)[C@H]4[C@H](O)C[C@]5(C)[C@@H](C6=CC(=O)OC6)CC[C@]5(O)[C@@H]4CC[C@]3(O)C2)[C@H](O)[C@H](O)[C@H]1O" is ____.
Out: 0%

In: Fill blank: measured BASOPHIL of the compound "COc1ccc2c(c1OC)C(=O)O[C@@H]2[C@H]1c2c(cc3c(c2OC)OCO3)CCN1C" is ____.
Out: 0.68%

In: Fill blank: measured BASOPHIL of the compound "COc1ccccc1[N+](=O)[O-]" is ____.
Out: 0%

In: Fill blank: measured BASOPHIL of the compound CCn1cc(C(=O)O)c(=O)c2cc(F)c(N3CCNC(C)C3)c(F)c21 (stereo not drawn) is ____.
Out: 0%

In: Fill blank: measured BASOPHIL of the compound "CN1C(=O)CN=C(c2ccccc2)c2cc([N+](=O)[O-])ccc21" is ____.
Out: 1.52%

----------
Species on record: Rattus norvegicus
experiment_description: DrugMatrix - Regimen: Daily Repeat
Format: toxicity, organism-based, Sprague-Dawley
Design: regimen Daily Repeat, gender Male, age 6-8 weeks
assay_context: in vivo, po, 0 mg/kg, 72 h, tissue Plasma, route oral GAVAGE, dose level Control, time 3 day, […]
Kindly supply the reported CHLORIDE values for the records listed here.
Your answer should be a plain number; it is taken to be in MEQ/L.

In: Fill blank: measured CHLORIDE of the compound "O=c1c(-c2ccc(O)cc2)coc2cc(O)cc(O)c12" is ____.
Out: 100.5

In: Fill blank: measured CHLORIDE of the compound "CC(C)c1c(C(=O)Nc2ccccc2)c(-c2ccccc2)c(-c2ccc(F)cc2)n1CC[C@@H](O)C[C@@H](O)CC(=O)O" is ____.
Out: 100.5

In: Fill blank: measured CHLORIDE of the compound ClC(Cl)(Cl)Cl [CARBON TETRACHLORIDE] is ____.
Out: 98.33

In: Fill blank: measured CHLORIDE of the compound "CCCCC(=O)N(Cc1ccc(-c2ccccc2-c2nnn[nH]2)cc1)[C@H](C(=O)O)C(C)C" is ____.
Out: 95.83

In: Fill blank: measured CHLORIDE of the compound CS(=O)(=O)Nc1ccc([N+](=O)[O-])cc1Oc1ccccc1 [NIMESULIDE] is ____.
Out: 99.67

In: Fill blank: measured CHLORIDE of the compound "CC(=O)Oc1ccccc1C(=O)O" is ____.
Out: 99.17

In: Fill blank: measured CHLORIDE of the compound CCc1ccc(CCOc2ccc(CC3SC(=O)NC3=O)cc2)nc1 (centres undefined) is ____.
Out: 101.67

In: Fill blank: measured CHLORIDE of the compound "c1ccoc1" is ____.
Out: 106.83

In: Fill blank: measured CHLORIDE of the compound "Cc1ccc(C)c(OCCCC(C)(C)C(=O)O)c1" is ____.
Out: 102.67

Taken from ChEMBL document CHEMBL3885881.
